- Assayed Target: UniProt:Q07817
- Assay Protocol: Inhibitory activity against Bcl-XL in presence of 1% human serum
Measured Attribute: IC50

Query: Please look at this compound and report its IC50: `O=C(NS(=O)(=O)c1ccc(NCCSc2ccccc2)c([N+](=O)[O-])c1)c1ccc(-c2ccc(F)cc2)cc1`
Response: > 10 µM

----------
- Assayed Target: Bcl-2-like protein 1 (Homo sapiens, UniProt Q07817)
- Sequence (Q07817 whole entry): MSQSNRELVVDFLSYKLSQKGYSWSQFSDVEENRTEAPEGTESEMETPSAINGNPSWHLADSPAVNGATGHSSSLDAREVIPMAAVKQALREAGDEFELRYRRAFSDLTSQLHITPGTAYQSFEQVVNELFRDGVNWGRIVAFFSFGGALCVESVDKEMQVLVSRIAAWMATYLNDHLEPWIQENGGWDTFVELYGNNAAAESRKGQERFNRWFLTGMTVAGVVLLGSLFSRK
- Assay Protocol: Activity towards mouse FL5.12 cell line transfected with Bcl-XL in presence of 3% fetal bovine serum
Exercise: state measured pEC50 for each of the molecules provided.
Give bare numbers, as −log10 of the molar value.

>  <Smiles Record>
COc1cc(CCCN2CCOCC2)ccc1-c1ccc(C(=O)NS(=O)(=O)c2ccc(N[C@H](CCCCN)CSc3ccccc3)c([N+](=O)[O-])c2)cc1

>  <pEC50>
5.05

$$$$

For each of the molecules below, note its pEC50.
1. CN(C)CCCC[C@H](CSc1ccccc1)Nc1ccc(S(=O)(=O)NC(=O)c2ccc(N3CCC(C)(C)CC3)cc2)cc1[N+](=O)[O-]
2. CN(C)C(=O)C[C@H](CSc1ccccc1)Nc1ccc(S(=O)(=O)NC(=O)c2ccc(N3CCC(C)(C)CC3)cc2)cc1[N+](=O)[O-]
3. CC1(C)CCN(c2ccc(C(=O)NS(=O)(=O)c3ccc(N[C@H](CCCCN)CSc4ccccc4)c([N+](=O)[O-])c3)cc2)CC1
4. CN(C)CC[C@H](CSc1ccccc1)Nc1ccc(S(=O)(=O)NC(=O)c2ccc(N3CCC(C)(C)CC3)cc2)cc1[N+](=O)[O-]
5. CN(C)CCC[C@H](CSc1ccccc1)Nc1ccc(S(=O)(=O)NC(=O)c2ccc(N3CCC(C)(C)CC3)cc2)cc1[N+](=O)[O-]
6. COc1cc(CCCN2CCOCC2)ccc1-c1ccc(C(=O)NS(=O)(=O)c2ccc(N[C@@H](CSc3ccccc3)CC(=O)N(C)C)c([N+](=O)[O-])c2)cc1
7. CC1(C)CCN(c2ccc(C(=O)NS(=O)(=O)c3ccc(N[C@H](CCN4CCOCC4)CSc4ccccc4)c([N+](=O)[O-])c3)cc2)CC1

Response:
1. 5.41
2. 4.82
3. 4.68
4. 5.29
5. 4.85
6. 5.12
7. 5.15

Look up pEC50 for the entries below, preserving their order.
1. COc1cc(CCCN2CCOCC2)ccc1-c1ccc(C(=O)NS(=O)(=O)c2ccc(N[C@H](CCN3CCOCC3)CSc3ccccc3)c([N+](=O)[O-])c2)cc1
2. COc1cc(CCCN2CCOCC2)ccc1-c1ccc(C(=O)NS(=O)(=O)c2ccc(N[C@H](CCCN(C)C)CSc3ccccc3)c([N+](=O)[O-])c2)cc1

Response:
[5.68, 5.07]

----------
Provide the reported pKd of each item.
- Assayed Target: Albumin (Homo sapiens)
- Sequence (P02768 whole entry, the tested form may be a part): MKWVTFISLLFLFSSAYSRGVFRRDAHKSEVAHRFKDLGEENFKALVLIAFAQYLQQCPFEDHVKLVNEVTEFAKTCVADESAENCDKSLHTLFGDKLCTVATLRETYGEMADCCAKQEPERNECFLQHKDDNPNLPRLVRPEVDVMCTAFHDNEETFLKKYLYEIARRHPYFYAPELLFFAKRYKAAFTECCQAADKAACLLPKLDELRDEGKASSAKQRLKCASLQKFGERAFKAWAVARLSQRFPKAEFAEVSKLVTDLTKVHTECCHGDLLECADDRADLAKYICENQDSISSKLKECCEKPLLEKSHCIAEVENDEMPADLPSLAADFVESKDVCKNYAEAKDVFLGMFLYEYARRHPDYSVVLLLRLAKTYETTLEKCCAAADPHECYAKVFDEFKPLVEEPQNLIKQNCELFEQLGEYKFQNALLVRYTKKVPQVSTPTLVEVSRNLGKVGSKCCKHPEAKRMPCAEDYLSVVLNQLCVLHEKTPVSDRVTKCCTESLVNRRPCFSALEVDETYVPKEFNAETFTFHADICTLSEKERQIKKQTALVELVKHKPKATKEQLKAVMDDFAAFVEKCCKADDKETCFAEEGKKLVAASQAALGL
- Assay Protocol: Binding affinity for human serum albumin domain III
One number for each entry, as −log10 of the molar value.

>  <Smiles Record>
COc1cc(CCCN2CCOCC2)ccc1-c1ccc(C(=O)NS(=O)(=O)c2ccc(N[C@H](CCN(C)C)CSc3ccccc3)c([N+](=O)[O-])c2)cc1

>  <pKd>
4.03

$$$$

Query: Using the record for `CN(C)CC[C@H](CSc1ccccc1)Nc1ccc(S(=O)(=O)NC(=O)c2ccc(N3CCC(C)(C)CC3)cc2)cc1[N+](=O)[O-]` , state its measured pKd.
Response: 4.87
